Tested on: OVCAR-8 ovarian
assayMethodText: NCI-60 one-dose screen, 48 h
measurementContext: 10 µM unless noted
The panel holds about 83,000 compounds, 20% with a hit somewhere; the sample as a whole holds those more often. Calls of active or inactive are those of the source. How the source made its calls: active means growth percent below 10; inactive means the rest.
Permitted responses: true for active, false for inactive

Sample answers from the record:
# compound, classLabel
data = [
    ("Cc1ccc2nc(/C=C/c3ccc(N(C)C)cc3)cc(C)c2c1", "false"),
    ("COc1ccc(N2C(=O)/C(=C/C(Cl)=C/c3ccc([N+](=O)[O-])cc3)SC2=S)cc1", "true"),
    ("NC(=N\\N=C/c1ccc(Cl)cc1Cl)/C(N)=N\\N=C/c1ccc(Cl)cc1Cl", "false"),
    ("COC(CCP(=O)(c1ccccc1)c1ccccc1)(C(=O)c1ccccc1)c1ccccc1 (stereo not given)", "false"),
    ("CNC(=O)c1cc(Oc2cccc3nc(NC(=O)Nc4ccc(F)cc4F)ccc23)ccn1", "false"),
]

Q) Each compound tested received a call. Report the one for "C#Cc1cccc(Nc2ncnc3ccc(-c4cnc(Cl)c(NS(C)(=O)=O)c4)cc23)c1" .
A) true

Q) Each compound tested received a call. Report the one for O=C1C=CC2(O)OC(c3ccccc3)CC(=O)C2=C1O (stereo not given) .
A) false

Q) Each compound tested received a call. Report the one for "CCOC(=O)c1ccc2c(c1)c1c(C)c3cnccc3c(C)c1n2C" .
A) true

Q) Each compound tested received a call. Report the one for "COc1cc(OC)cc(C(=O)Nc2cnc(Nc3ccc(N4CCOCC4)nc3)nc2Oc2ccc(C(F)(F)F)cc2)c1" .
A) false

Q) Each compound tested received a call. Report the one for "O=C1c2ccccc2-c2c1c1ccncc1c(=O)n2CCCn1ccnc1" .
A) false

Q) Each compound tested received a call. Report the one for "COc1ccc(NC(=O)c2sc3nc(C)c(C(=O)c4ccccc4)cc3c2N)cc1" .
A) false

Q) Each compound tested received a call. Report the one for "CN(C)CCCN(CCC1CCCCC1)CCC1CCCCC1" .
A) false

Q) Each compound tested received a call. Report the one for "COc1cccc2cc(N(C)c3nc(C)nc4c3CCC4)ccc12" .
A) false

Q) Each compound tested received a call. Report the one for "Nc1ncc(-c2ccc3ncnc(N4CCc5ccc(Cl)cc54)c3c2)cn1" .
A) true

Q) Each compound tested received a call. Report the one for "COc1ccc(/C=N/NC(=O)Cn2nnc3ccccc32)cc1" .
A) false

Q) Each compound tested received a call. Report the one for "c1ccc2[nH]c(-c3ccc(-c4nccc5c4[nH]c4ccccc45)cc3)nc2c1" .
A) false

Q) Each compound tested received a call. Report the one for Nc1ncnc2c1N=C(c1ccc([N+](=O)[O-])cc1)CC(c1ccc3c(c1)OCO3)N2 (stereo not given) .
A) false

Q) Each compound tested received a call. Report the one for "Cc1nn(-c2ccccc2)c(Oc2ccccc2)c1/C=N/NC(=O)Cn1c(=O)sc2ccccc21" .
A) false

Q) Each compound tested received a call. Report the one for Nc1nc(N)c2c(n1)NC(c1cccc(Nc3ccnc4cc(C(F)(F)F)ccc34)c1)CC(c1ccc(Cl)cc1)=N2 (stereo not given) .
A) false

Q) Each compound tested received a call. Report the one for "CN(C)c1ccc(Cc2cc(-c3ccccc3)nn(C/C(=N/O)c3ccccc3)c2=O)cc1" .
A) false
